Target: Kv7.2/7.3 (human KCNQ2 and KCNQ3 genes) in HEK293 cells (Homo sapiens, UniProt O43525+O43526)
Construct: host or cells: HEK293
Assay: Kv7.2/3 assay (FLIPR potassium assay, agonist mode)
Assay type: cell-based
Conditions: Kv7.2/7.3 activation, responses relative to Flupirtine
Procedure: HEK293 cells were stably transfected with the appropriate ion channel cDNA(s) (human KCNQ2 and KCNQ3 genes). […] Cells were incubated at 37° C. overnight or until cells reached sufficient density in the wells (near confluent monolayer) to use in fluorescence assays. […] 5 µL of 5x concentrated test, vehicle, or control compounds solutions prepared in the stimulation buffer (K^+-free buffer with 5 mM TI^+) were added to each well and fluorescence recording was continued for 5 min. […]
Please go through the items and note down their pEC50.
// pEC50 is dimensionless: -log10 of concentration (M)

The measured pEC50 associated with O=C(NCc1cccc(C(F)(F)F)c1)NC12CC(C(F)F)(C1)C2 reads 7.23

For reference, reported pEC50 for O=C(NCc1cccc(C(F)(F)F)c1)NC1CC(C(F)F)C1 (single isomer, unassigned) stands at 7.09

Lookup result for O=C(NCc1cccc(OC(F)(F)F)c1)NC12CC(F)(C1)C2 ; measured pEC50: 6.84

pEC50 recorded for this molecule, O=C(NCc1cccc(C(F)(F)F)c1)NC12CC(C(F)(F)F)(C1)C2 , is 7.52
